Source of measurements: patent US8546381B2

TARGET UNDER TEST: human recombinant serotonin (5-Hydroxytryptamine) 5-HT6 receptor (Homo sapiens, UniProt P50406)
Construct: expressed in transfected cells; host or cells: human HeLa cells
Sequence (P50406 whole entry): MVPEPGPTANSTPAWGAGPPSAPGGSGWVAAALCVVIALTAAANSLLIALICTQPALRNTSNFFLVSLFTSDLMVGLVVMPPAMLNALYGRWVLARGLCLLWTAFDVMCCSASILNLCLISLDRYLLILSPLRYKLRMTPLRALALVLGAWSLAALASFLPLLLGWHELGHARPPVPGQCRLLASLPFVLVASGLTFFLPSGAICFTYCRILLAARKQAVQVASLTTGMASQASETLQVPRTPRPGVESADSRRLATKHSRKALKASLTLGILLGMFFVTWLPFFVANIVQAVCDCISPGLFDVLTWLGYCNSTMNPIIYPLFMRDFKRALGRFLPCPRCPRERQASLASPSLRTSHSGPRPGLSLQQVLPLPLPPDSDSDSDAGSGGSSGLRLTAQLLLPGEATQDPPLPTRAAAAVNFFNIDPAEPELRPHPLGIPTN
MEASUREMENT PROTOCOL: Serotonin 5-HT6 radioligand binding ([3H]LSD)
CONDITION: read-out: Serotonin 5-HT6, inhibition of ligand binding (1 μM)
TEST READOUT: inhibition at 1 µM

> print(dat)
                                   molecule  experimental.value
1  Cc1ccc2c(c1)c1c(n2CCc2cnc(C)nc2)CC2CCC1N2C (stereo not drawn)                 12%
2  COc1ccc(C(C)(O)Cn2c3c(c4cc(Cl)ccc42)C2CCC(C3)N2C)cc1F (stereo not drawn)                 29%
3  CN1C2CCC1c1c(n(CCc3ccc(C(F)(F)F)nc3)c3cc(F)c(Cl)cc13)C2 (stereo not drawn)                 21%
4  Cc1ccc2c(c1)c1c(n2CCc2ccc(C)nc2)CC2CCC1N2C (stereo not drawn)                 13%
5  CN1C2CCC1c1c(n(CCC(=O)N3CCSCC3)c3ccc(Cl)cc13)C2 (stereo not drawn)                 -1%
6  Cc1ccc2c(c1)c1c(n2CC(O)c2ccc(C)nc2)CC2CCC1N2C (stereo not drawn)                 -5%
7  CN1C2CCC1c1c(n(CCC(=O)N3CCCC3)c3ccc(Cl)cc13)C2 (stereo not drawn)                  7%
8  CN1[C@@H]2CC[C@H]1c1c(n(CCc3ccc(F)cc3)c3ccc(F)cc13)C2                 21%
9  CN1C2CCC1c1c(n(CCc3ccc(Cl)cc3)c3ccc(F)cc13)C2 (stereo not drawn)                 14%

---

TARGET UNDER TEST: human recombinant adrenergic α2C receptor (Homo sapiens, UniProt P18825)
Construct: expressed in transfected cells; host or cells: insect Sf9 cells
Sequence (P18825 whole entry): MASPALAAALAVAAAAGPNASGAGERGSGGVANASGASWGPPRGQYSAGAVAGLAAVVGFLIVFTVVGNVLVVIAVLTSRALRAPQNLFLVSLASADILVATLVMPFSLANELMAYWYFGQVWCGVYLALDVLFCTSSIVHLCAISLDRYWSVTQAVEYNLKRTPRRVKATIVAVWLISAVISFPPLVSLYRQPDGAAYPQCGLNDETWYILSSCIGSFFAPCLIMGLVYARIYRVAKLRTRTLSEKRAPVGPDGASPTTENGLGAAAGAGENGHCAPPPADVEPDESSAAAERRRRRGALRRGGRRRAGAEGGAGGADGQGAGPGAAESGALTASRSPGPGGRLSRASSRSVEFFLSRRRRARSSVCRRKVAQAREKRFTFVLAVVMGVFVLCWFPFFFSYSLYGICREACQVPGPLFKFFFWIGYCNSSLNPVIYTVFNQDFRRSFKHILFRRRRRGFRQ
MEASUREMENT PROTOCOL: Adrenergic α2C radioligand binding ([3H]MK-912)
CONDITION: read-out: Adrenergic α2C, inhibition of ligand binding (1 μM)
Quick reference for inhibition at 1 µM among some molecules
TEST READOUT: inhibition at 1 µM

> print(dat)
                                   molecule  experimental.value
1  CN1C2CCC1c1c(n(CCc3ccc(Cl)cc3)c3ccc(Cl)cc13)C2 (stereo not shown) [Compound 58]                 89%
2  Cc1ccc2c(c1)c1c(n2CCc2ccccc2)CC2CCC1N2C (stereo not shown) [Compound 2]                 97%
3  CN1C2CCC1c1c(n(CCc3ccc(F)cc3)c3ccc(Cl)cc13)C2 (stereo not shown) [Compound 57]                 83%
4  Cc1ccc2c(c1)c1c(n2CCc2ccccc2)CC2CCCC1N2C (stereo not shown) [Compound 56]                 55%

---

Quick reference for inhibition at 1 µM among some molecules
TARGET UNDER TEST: human recombinant serotonin (5-Hydroxytryptamine) 5-HT2C receptor (Homo sapiens, UniProt P28335)
Construct: expressed in transfected cells; host or cells: CHO-K1 cells
Sequence (P28335 33-458): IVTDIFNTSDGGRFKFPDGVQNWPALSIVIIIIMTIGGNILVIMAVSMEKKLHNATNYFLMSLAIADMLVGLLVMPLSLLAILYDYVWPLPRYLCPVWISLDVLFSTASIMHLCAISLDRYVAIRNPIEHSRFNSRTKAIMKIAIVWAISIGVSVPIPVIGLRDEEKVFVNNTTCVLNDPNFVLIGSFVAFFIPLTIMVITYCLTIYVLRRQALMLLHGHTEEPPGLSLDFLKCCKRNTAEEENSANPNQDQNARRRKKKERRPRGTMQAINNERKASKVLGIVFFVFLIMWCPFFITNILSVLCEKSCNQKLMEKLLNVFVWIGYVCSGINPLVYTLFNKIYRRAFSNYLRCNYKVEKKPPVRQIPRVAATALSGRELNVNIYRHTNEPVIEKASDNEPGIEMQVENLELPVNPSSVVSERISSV
MEASUREMENT PROTOCOL: Serotonin 5-HT2C radioligand binding ([3H]Mesulergine)
CONDITION: read-out: Serotonin 5-HT2C, inhibition of ligand binding (1 μM)
TEST READOUT: inhibition at 1 µM (%)

> print(dat)
                                   molecule  reading.unit  experimental.value
1  C/C(=C\n1c2c(c3cc(C)ccc31)C1CCC(C2)N1C)c1ccc(Cl)cc1Cl (stereo not drawn) [Compound 163]             %                  94
2  Cc1ccc(CCn2c3c(c4ccccc42)C2CCC(C3)N2C)cn1 (stereo not drawn) [Compound 92]             %                   9
3  CN1C2CCC1c1c(n(CCCc3ccc(C(F)(F)F)nc3)c3ccc(Cl)cc13)C2 (stereo not drawn) [Compound 37]             %                  26
4  Cc1ccc2c(c1)c1c(n2CCc2cccnc2)CC2CCC1N2C (stereo not drawn) [Compound 86]             %                  72
5  CN1C2CCC1c1c(n(CCC(=O)N3CCSCC3)c3ccc(Cl)cc13)C2 (stereo not drawn) [Compound 12]             %                  26
6  CN1C2CCC1c1c(n(CCc3ccc(F)cc3)c3ccc(F)cc13)C2 (stereo not drawn) [Compound 35]             %                  86
7  C/C(=C\n1c2c(c3cc(C)ccc31)C1CCC(C2)N1C)c1ccc(F)cc1 (stereo not drawn) [Compound 124]             %                  86
8  Cc1ccc(CCn2c3c(c4ccccc42)[C@@H]2CC[C@H](C3)N2C)cn1 [Compound 102]             %                  -6
9  CN1C2CCC1c1c(n(CCc3ccc(F)cc3)c3ccc(Cl)cc13)C2 (stereo not drawn) [Compound 57]             %                  88
